Tested on: GABA-A receptor
Experimental protocol: 35S-TBPS binding assay on rat cerebral cortex cell membrane
Parameters: species or system Sprague-Dawley rat
Settings: 2 nM 35S-TBPS, GABA added, read-out: 35S-TBPS bindng test, IC50 on inhibiting the TBPS binding activity
Assay endpoint: IC50 (nM)
Use nM as the unit, but write only the number.

# example entries with known answers
>  <Compound string>
C[C@@]1(O)CC[C@@]2(F)[C@H](CC[C@H]3[C@@H]4CC[C@H](C(=O)COc5ccc(F)cc5F)[C@@]4(C)CC[C@@H]32)C1

>  <Assay endpoint>
IC50

>  <Reported result>
13.7

$$$$
>  <Compound string>
Cc1nn(CC(=O)[C@H]2CC[C@H]3[C@@H]4CC[C@@H]5C[C@](C)(O)CC[C@]5(F)[C@H]4CC[C@]23C)cc1C#N

>  <Assay endpoint>
IC50

>  <Reported result>
34

$$$$
>  <Compound string>
C[C@]1(O)CC[C@@]2(F)[C@H](CC[C@H]3[C@@H]4CC[C@H](C(=O)CNS(=O)(=O)c5ccccc5)[C@@]4(C)CC[C@@H]32)C1

>  <Assay endpoint>
IC50

>  <Reported result>
49

$$$$
>  <Compound string>
C[C@@]1(O)CC[C@@]2(F)[C@H](CC[C@H]3[C@@H]4CC[C@H](C(=O)COc5ccc(F)cc5C#N)[C@@]4(C)CC[C@@H]32)C1

>  <Assay endpoint>
IC50

>  <Reported result>
7.2

$$$$

Proceed to the following item.
For this compound ( C[C@@]1(O)CC[C@@]2(F)[C@H](CC[C@H]3[C@@H]4CC[C@H](C(=O)Cn5cc(-c6ncco6)cn5)[C@@]4(C)CC[C@@H]32)C1 ), measured IC50 is 23
